Species on record: Rattus norvegicus
Test: Tested for tubulin polymerization assay in rat; Inactive
Assay type: functional, organism-based
Activity calls are given as the source filed them. The rule behind the calls is not given here.
experimental endpoint: Activity

C=COC(=O)O[C@@H](C(=O)O[C@H]1C[C@@]2(O)[C@@H](OC(=O)c3ccccc3)C3[C@]4(OC(C)=O)COC4C[C@H](O)[C@@]3(C)C(=O)[C@H](OC(C)=O)C(=C1C)C2(C)C)[C@@H](NC(=O)c1ccccc1)c1ccccc1 (stereo partly drawn)
inactive
CC(=O)O[C@H]1C(=O)[C@@]2(C)C([C@H](OC(=O)c3ccccc3)[C@]3(O)C[C@H](OC(=O)[C@H](OC(=O)OCc4ccccc4)[C@@H](NC(=O)c4ccccc4)c4ccccc4)C(C)=C1C3(C)C)[C@]1(OC(C)=O)COC1C[C@@H]2O (stereo partly drawn)
inactive
CC(=O)O[C@H]1C(=O)[C@@]2(C)C([C@H](OC(=O)c3ccccc3)[C@]3(O)C[C@H](OC(=O)[C@H](OC(=O)OC(C)C)[C@@H](NC(=O)c4ccccc4)c4ccccc4)C(C)=C1C3(C)C)[C@]1(OC(C)=O)COC1C[C@@H]2O (stereo partly drawn)
inactive

Value source: ChEMBL document CHEMBL1151041
